# Test system: U2OS, H460, HTB-9, ES2, HCT116, Capan, OVCAR3, DU145, SK-Mel-5, KB, A498, MCF-7, HepG2, T98G, K562, HeLa
# test_summary: MTT Cytotoxic Assay of reaction products and isolated compounds
# Format: cell-based
# Procedure: The peaks, fractions and compounds are selected according to the activities of times studies and the changes of peaks. Selecting the HPLC fractions for isolation is according to the cytotoxic activity of the reaction product obtained at a specific time. […] MTT Assay. […] The formazan (product of the reduction of tetrazolium by viable cells) formed and was dissolved with DMSO and the O.D. at 490 nm, and was measured by an ELISA reader. The MTT level of the cells before drug-treatment was also measured (T0). […]
endpoint: Cytotoxicity activity

- CCCC(=O)NCC1(C)C(N)CCC2(C)C1CCC1(C)C2CC=C2C3CC(C)(C)C(NC(=O)CCC)C(N)C3(CNC(=O)CCC)C(N)CC21C (stereo not shown): weak
- CC=C(C)C(=O)NCC1(C)C(O)CCC2(C)C1CCC1(C)C2CC=C2C3CC(C)(C)C(O)C(O)C3(CNC(=O)C(C)=CC)C(O)CC21C (stereo not shown): strong
- CC=CC(=O)NCC1(C)C(N)CCC2(C)C1CCC1(C)C2CC=C2C3CC(C)(C)C(NC(=O)C=CC)C(N)C3(CN)C(N)CC21C (stereo not shown): moderate
- C=CC(=O)NCC1(C)C(N)CCC2(C)C1CCC1(C)C2CC=C2C3CC(C)(C)C(N)C(N)C3(CNC(=O)C=C)C(N)CC21C (stereo not shown): moderate
- CCC=CC(=O)NCC1(C)C(N)CCC2(C)C1CCC1(C)C2CC=C2C3CC(C)(C)C(N)C(N)C3(CNC(=O)C=CCC)C(N)CC21C (stereo not shown): moderate
- CCC(=O)NCC1(C)C(N)CCC2(C)C1CCC1(C)C2CC=C2C3CC(C)(C)C(NC(=O)CC)C(N)C3(CN)C(N)CC21C (stereo not shown): moderate
- CCC(=O)NCC1(C)C(N)CCC2(C)C1CCC1(C)C2CC=C2C3CC(C)(C)C(NC(=O)CC)C(N)C3(CNC(=O)CC)C(N)CC21C (stereo not shown): weak
- CCC(CC)C(=O)NCC1(C)C(N)CCC2(C)C1CCC1(C)C2CC=C2C3CC(C)(C)C(NC(=O)C(CC)CC)C(N)C3(CN)C(N)CC21C (stereo not shown): moderate
- CC1(C)CC2C3=CCC4C5(C)CCC(N)C(C)(CNC(=O)c6ccccc6)C5CCC4(C)C3(C)CC(N)C2(CNC(=O)c2ccccc2)C(N)C1NC(=O)c1ccccc1 (stereo not shown): weak
- CC1(C)CC2C3=CCC4C5(C)CCC(N)C(C)(CNC(=O)C=Cc6ccccc6)C5CCC4(C)C3(C)CC(N)C2(CN)C(N)C1NC(=O)C=Cc1ccccc1 (stereo not shown): moderate
- CC(C)=CC(=O)NCC1(C)C(O)CCC2(C)C1CCC1(C)C2CC=C2C3CC(C)(C)C(O)C(O)C3(CNC(=O)C=C(C)C)C(O)CC21C (stereo not shown): strong
- CC(=O)NCC1(C)C(N)CCC2(C)C1CCC1(C)C2CC=C2C3CC(C)(C)C(NC(C)=O)C(N)C3(CN)C(N)CC21C (stereo not shown): moderate
- CCC(CC)C(=O)NCC1(C)C(N)CCC2(C)C1CCC1(C)C2CC=C2C3CC(C)(C)C(NC(=O)C(CC)CC)C(N)C3(CNC(=O)C(CC)CC)C(N)CC21C (stereo not shown): weak

Numbers sourced from patent US20230159436A1.
